I'd appreciate it if you could supply IC50 values for the items below.
# System under test: Calpain-2 catalytic subunit (Sus scrofa)
# Sequence (P43367 whole entry): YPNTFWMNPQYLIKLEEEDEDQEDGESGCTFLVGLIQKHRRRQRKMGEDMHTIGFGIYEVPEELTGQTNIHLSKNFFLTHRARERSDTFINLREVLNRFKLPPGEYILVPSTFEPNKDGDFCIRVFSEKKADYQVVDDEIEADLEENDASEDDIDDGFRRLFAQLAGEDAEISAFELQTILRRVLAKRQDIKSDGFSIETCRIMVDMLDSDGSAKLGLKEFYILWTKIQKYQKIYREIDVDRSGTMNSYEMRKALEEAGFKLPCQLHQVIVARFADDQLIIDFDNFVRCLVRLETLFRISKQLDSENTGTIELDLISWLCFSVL
# Protocol text: m-calpain protease blockers, concentration series – biochemical, fluorogenic peptide substrate, dose response (AID 1420)
# Type: functional

// fetch IC50 given entry CCOC(=O)N1CCN(CC(=O)Nc2sccc2C#N)CC1
33.6 µM (not active)

// fetch IC50 given entry CCOC(=O)CN(C(=O)CSc1n[nH]c2c3cc(F)ccc3nc-2n1)c1ccccc1
5.94 µM (not active)

// fetch IC50 given entry CCCCC(=O)Nc1ccc(C(=O)c2ccccc2)cc1
> 50 µM (not active)

// fetch IC50 given entry CC1=C(C(=O)OCc2ccccc2)C(c2cccs2)N2C(=O)CCSC2=N1 (centres undefined)
8.99 µM (not active)

* * *

# System under test: Replicative DNA helicase DnaB (Mycobacterium tuberculosis, UniProt P9WMR3)
# Sequence (P9WMR3 1-399, added parts left off): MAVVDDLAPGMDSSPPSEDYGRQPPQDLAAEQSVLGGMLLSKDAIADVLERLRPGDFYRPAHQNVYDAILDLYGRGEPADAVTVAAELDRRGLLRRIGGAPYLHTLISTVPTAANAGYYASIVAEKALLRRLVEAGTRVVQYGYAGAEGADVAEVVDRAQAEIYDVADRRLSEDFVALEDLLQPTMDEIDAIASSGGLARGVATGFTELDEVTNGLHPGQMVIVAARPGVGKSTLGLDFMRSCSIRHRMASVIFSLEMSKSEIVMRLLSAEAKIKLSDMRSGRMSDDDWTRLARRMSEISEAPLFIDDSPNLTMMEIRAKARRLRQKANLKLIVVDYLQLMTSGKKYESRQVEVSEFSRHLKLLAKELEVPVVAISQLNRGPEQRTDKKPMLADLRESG
# Protocol text: DnaB intein splicing inhibitors, dose response, biochemical, cell-free fluorescence (AID 449749)
# Format: functional
Calls of active or inactive are those of the source.
// classify into active, inactive

Recorded call for Cc1cc(C)c2c(c1)-c1c(ssc1=S)C(C)(C)N2C(=O)CSc1nncn1C ?
active

Recorded call for CC(C)CS(=O)(=O)C1=NSC2=NC(=O)/C(=C\c3ccc(OC(=O)c4ccco4)cc3)C(=N)N21 ?
inactive

Recorded call for NC1=C2C(=O)c3ccccc3C(=O)C2=C(N)CC1 ?
active

Recorded call for O=C(CCCN1C(=O)/C(=C/c2ccccc2)SC1=S)Nc1ccc(O)cc1 ?
active

Recorded call for Cc1cccc(C(=O)c2cnc3ccccc3c2-c2ccccc2)c1 ?
active

Recorded call for O=c1c(Cl)c(Cl)cnn1Cc1nnc(-c2ccc(Cl)cc2)o1 ?
active

Recorded call for Cc1nc2ccccc2c2c1C(=O)N(c1cccc(C(=O)O)c1)C2=O ?
active

Recorded call for CCOC(=O)N1C(=O)[C@@](c2ccc(Cl)cc2)(C(C)C)N1C(=O)OCC ?
active

Recorded call for CC(C)c1n[nH]c2c1C1(CCN(Cc3ccccc3)CC1)C(C#N)=C(N)O2 ?
active

Recorded call for CCOC(=O)c1ccc(-n2[nH]c(-c3ccccc3)cc2=O)cc1 ?
active

Recorded call for CCOC(=O)c1cnc(N)nc1C(F)(F)F ?
inactive

* * *

# System under test: Cytochrome P450 2C19 (Homo sapiens, UniProt P33261)
# Sequence (P33261 whole entry): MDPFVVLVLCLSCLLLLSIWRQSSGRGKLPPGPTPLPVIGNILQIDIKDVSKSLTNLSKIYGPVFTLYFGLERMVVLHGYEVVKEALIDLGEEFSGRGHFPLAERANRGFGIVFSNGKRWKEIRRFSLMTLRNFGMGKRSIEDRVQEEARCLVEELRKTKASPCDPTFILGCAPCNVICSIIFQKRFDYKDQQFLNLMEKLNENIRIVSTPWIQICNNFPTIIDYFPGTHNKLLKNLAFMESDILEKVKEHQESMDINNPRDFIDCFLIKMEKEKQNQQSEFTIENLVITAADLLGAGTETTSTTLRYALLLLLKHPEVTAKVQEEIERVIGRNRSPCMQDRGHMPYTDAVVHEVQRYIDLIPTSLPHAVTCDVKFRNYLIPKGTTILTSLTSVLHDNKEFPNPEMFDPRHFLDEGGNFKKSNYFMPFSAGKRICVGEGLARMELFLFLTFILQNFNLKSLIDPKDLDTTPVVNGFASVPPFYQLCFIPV
# Protocol text: Cytochrome panel assay with activity outcomes. Panel member name: p450-cyp2c19 Compounds with AC50 equal or less than 10 uM are considered active
# Format: functional
# Experimental context: read-out: AC50
I'd appreciate it if you could supply AC50 values for the items below.

// fetch AC50 given entry COC(=O)C1(CC(C)C)C=C2C(=C(C(C)C)C(=O)C2C)CN1 (stereo unspecified)
25.1 µM (inconclusive)

// fetch AC50 given entry O=c1c(Oc2ccccc2Br)c(C(F)(F)F)oc2c(CN3CCCC3)c(O)ccc12
39.8 µM (inconclusive)

// fetch AC50 given entry CSc1nnc(-c2cc3c(-c4ccccc4)nn(C)c3s2)n1C
22.4 µM (inconclusive)

// fetch AC50 given entry COc1ccc(N2CCc3c(C)nc4c(OC)cc(OC)cc4c32)c(OC)c1
28.2 µM (inconclusive)

// fetch AC50 given entry CC(=O)NCCNc1ncncc1-c1ccc(N(C)C)cc1
20 µM (inconclusive)

// fetch AC50 given entry CSc1nc(C2CC2)cc(-c2cccs2)c1C#N
1.26 µM (inconclusive)

// fetch AC50 given entry c1csc(CNCCCN2CCOCC2)c1
14.1 µM (inconclusive)

// fetch AC50 given entry Cn1c(=O)c(-c2ccccc2)nc2cnc(OCc3ccccc3)nc21
39.8 µM (inconclusive)

// fetch AC50 given entry Cc1cccc(NC(=O)Cn2c(=O)n3nc(CCn4nc(C)cc4C)nc3c3ccccc32)c1
0.0355 µM (inconclusive)

// fetch AC50 given entry Cn1cccc1C(=O)N1CCC[C@@]2(CCN(c3ccccn3)C2)C1
39.8 µM (inconclusive)

// fetch AC50 given entry Cc1cccc(CNc2ncnc3ccc(-c4cccnc4)cc23)c1
39.8 µM (inconclusive)

// fetch AC50 given entry O[C@@H](c1cc(-c2ccc(Cl)cc2)nc2ccccc12)[C@@H]1CCCCN1
6.31 µM (inconclusive)

// fetch AC50 given entry N#Cc1cccc(NC(=O)N2CC3(CCN(C(=O)c4ccco4)CC3)C2)c1
2 µM (inconclusive)

// fetch AC50 given entry COCC(=O)Oc1c(S(=O)(=O)c2ccc(C)cc2)c(C)nn1-c1ccccc1
28.2 µM (inconclusive)

// fetch AC50 given entry Cc1ccc(S(=O)(=O)N/N=C/c2ccc(OC3CSC3)cc2)cc1
4.47 µM (inconclusive)

// fetch AC50 given entry COc1ccc(Cl)cc1C(=O)Nn1cnc2ccccc2c1=O
11.2 µM (inconclusive)
